Target: T1, mouse tissue factor pathway inhibitor (TFPI) (mouse, UniProt O54819 29-289, limits assumed)
T1 construct: bought; also called mTFPI; murine TFPI
T1 sequence (looked up): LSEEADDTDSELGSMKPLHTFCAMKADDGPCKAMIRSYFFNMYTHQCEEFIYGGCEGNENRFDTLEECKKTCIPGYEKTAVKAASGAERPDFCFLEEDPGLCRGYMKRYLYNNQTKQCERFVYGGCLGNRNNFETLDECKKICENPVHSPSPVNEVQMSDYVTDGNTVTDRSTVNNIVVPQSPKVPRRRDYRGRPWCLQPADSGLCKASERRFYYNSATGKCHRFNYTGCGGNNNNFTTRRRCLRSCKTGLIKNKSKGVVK
Test: SPR, TFPI immobilized
Reported Endpoint: koff (s⁻¹)
# unit: s⁻¹ | format: bare number

For B9.7 (4B7 HC N32D+D62R+Y112D/LC S32R+N35I) (Fab, V domains shown) VH: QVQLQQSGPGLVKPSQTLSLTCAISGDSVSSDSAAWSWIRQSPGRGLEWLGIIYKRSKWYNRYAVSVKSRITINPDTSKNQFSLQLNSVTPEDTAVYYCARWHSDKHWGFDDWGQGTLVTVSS VL: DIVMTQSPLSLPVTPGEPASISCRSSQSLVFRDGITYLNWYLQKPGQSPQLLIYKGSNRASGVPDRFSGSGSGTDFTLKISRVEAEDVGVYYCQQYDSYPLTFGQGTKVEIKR , what is its reported koff?
0.000334
